- assay-info: Solubility measurement of saturated solutions by HPLC at room temperature (0 h and 24 h)
- Type: physicochemical
- particulars: buffered water with excipients, pH 4, aqueous with cosolvent or surfactant or cyclodextrin, thermodynamic from solid, CBS 30 mM pH 4.0, NaCl 3 mg/mL; SBE-beta-CD 40 mg/mL + Soybean lecithin 10 mg/mL; 24 h; pH exp 4.3
readout-name: solubility at 24 h
Param answer (str): number followed by unit.

Value of measured solubility at 24 h for the entry "COc1cc(N2CCNCC2)ccc1Nc1ncc2c(n1)-n1ccc(C(=O)Nc3c(C)cccc3C)c1CC2" : 3600 µg/mL

---

- assay-info: Solubility measurement of saturated solutions by HPLC at room temperature (0 h and 24 h)
- Format: physicochemical
- particulars: buffered water with excipients, pH 5.5, aqueous with cosolvent or surfactant or cyclodextrin, thermodynamic from solid, CBS 30 mM pH 5.5, NaCl 3 mg/mL; SBE-beta-CD 40 mg/mL; 24 h; pH exp 5.7
readout-name: solubility at 24 h (µg/mL)
Reply with just the number (in µg/mL).

Consider "COc1cc(N2CCNCC2)ccc1Nc1ncc2c(n1)-n1ccc(C(=O)Nc3c(C)cccc3C)c1CC2" . Its measured solubility at 24 h is 3100
